measurement_target: NK1 neurokinin receptor (Homo sapiens)
Sequence (P25103 whole entry): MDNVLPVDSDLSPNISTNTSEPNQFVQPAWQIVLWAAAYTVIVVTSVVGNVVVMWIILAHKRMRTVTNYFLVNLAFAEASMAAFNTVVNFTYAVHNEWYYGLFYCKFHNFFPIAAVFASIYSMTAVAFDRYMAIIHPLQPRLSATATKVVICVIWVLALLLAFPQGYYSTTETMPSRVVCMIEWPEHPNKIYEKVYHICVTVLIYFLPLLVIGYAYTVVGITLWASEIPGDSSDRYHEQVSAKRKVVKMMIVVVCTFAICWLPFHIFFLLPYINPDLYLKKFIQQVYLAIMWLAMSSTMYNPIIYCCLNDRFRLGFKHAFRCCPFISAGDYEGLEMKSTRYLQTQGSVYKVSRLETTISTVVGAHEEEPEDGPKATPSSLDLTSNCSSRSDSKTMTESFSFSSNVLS
reported_endpoint: Ki

> print(dat)
                           structure.string  reported.endpoint  observed
1  Cn1cc2cc(-c3cc4[nH]nc(C5CC5)c4n(-c4ccc(OC(F)F)cc4)c3=O)ccc2n1                 Ki   10.2 µM

* * *

measurement_target: Phosphodiesterase PDE4D2 (Homo sapiens, UniProt Q08499)
Sequence (Q08499 303-809 limits assumed): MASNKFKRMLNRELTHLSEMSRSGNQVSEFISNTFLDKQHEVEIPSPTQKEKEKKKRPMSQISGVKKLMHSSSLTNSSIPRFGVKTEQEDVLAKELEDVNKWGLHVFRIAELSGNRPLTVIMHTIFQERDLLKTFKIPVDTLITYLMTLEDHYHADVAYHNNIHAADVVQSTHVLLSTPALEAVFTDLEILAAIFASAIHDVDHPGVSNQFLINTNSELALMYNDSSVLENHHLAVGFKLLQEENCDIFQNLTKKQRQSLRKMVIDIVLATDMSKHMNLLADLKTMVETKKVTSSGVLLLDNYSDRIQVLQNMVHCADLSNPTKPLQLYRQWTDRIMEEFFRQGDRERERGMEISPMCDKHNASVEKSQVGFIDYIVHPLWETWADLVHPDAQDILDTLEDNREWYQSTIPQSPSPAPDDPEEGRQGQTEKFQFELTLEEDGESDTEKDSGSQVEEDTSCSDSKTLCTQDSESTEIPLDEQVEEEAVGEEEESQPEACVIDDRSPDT
pIC50: −log10 of the molar value.
reported_endpoint: pIC50

> print(dat)
                                   molecule  observed
1  Cn1cc2cc(-c3cc4[nH]nc(C5CC5)c4n(-c4ccc(OC(F)F)cc4)c3=O)ccc2n1 [AZ’9567]      5.39
